experimental_setup: human gut metagenome, 24 h, 2 µM; also: call rule not given here
quantity_measured: Bacterial Biotransformation

compound | quantity_measured | value_observed
Fc1ccc([C@@H]2CCNC[C@H]2COc2ccc3c(c2)OCO3)cc1 [PAROXETINE] | Bacterial Biotransformation | Compound metabolized
Cc1nc2n(c(=O)c1CCN1CCC(c3noc4cc(F)ccc34)CC1)CCCC2O (stereo not drawn) [PALIPERIDONE] | Bacterial Biotransformation | Compound metabolized
NC12CC3CC(CC(C3)C1)C2 [AMANTADINE] | Bacterial Biotransformation | Compound NOT metabolized
CCCc1nc2c(C)cc(-c3nc4ccccc4n3C)cc2n1Cc1ccc(-c2ccccc2C(=O)O)cc1 | Bacterial Biotransformation | Compound metabolized

Documented Bacterial Biotransformation of COc1ccccc1N1CCN(CC(O)COc2cccc3ccccc23)CC1 (stereo not drawn) [NAFTOPIDIL] : Compound NOT metabolized

Reference source for all entries: ChEMBL document CHEMBL5724914
